- System: CCRF-CEM leukemia
- test.name: NCI-60 one-dose screen, 48 h
- assay.context: 10 µM unless noted
- Method: Growth inhibition of the CCRF-CEM human tumor cell line is measured as a screen for anti-cancer activity. Cells are grown in 96 well plates and exposed to the test compound for 48 hours. Compounds are tested at a single concentration, which is 10^-5 M for most compounds. The reported endpoint is percent growth (GI% or GIPRCNT), where numbers from 0 - 100% represent growth inhibition, and numbers from -100% - 0 represent cell death. For example, a value of 40 represents 60% growth inhibition. […]
Compounds without any hit were thinned out: in the full panel of roughly 83,000, 20% have a hit. The source made the active and inactive calls. How the source made its calls: active means growth percent below 10; inactive means the rest.
Choose one outcome from this list and give only that: active, inactive

>  <compound>
Brc1ccc2[nH]cc(-c3nn4cc(-c5nccs5)nc4s3)c2c1

>  <group.label>
inactive

$$$$
>  <compound>
O=C(CCCCCCNC(=O)C(O)(O)C(F)(F)F)Nc1ncc(-c2ccc(Br)cc2)s1

>  <group.label>
inactive

$$$$
>  <compound>
COC(=O)c1cccc(NC2=C(Cl)C(=O)c3nc(C)ccc3C2=O)c1

>  <group.label>
active

$$$$
>  <compound>
O=C(CCCCCC/C=C\c1csc(Br)n1)NO

>  <group.label>
inactive

$$$$

**Query** Record request — test call for O=C(Nc1cc(C(F)(F)F)cc(C(F)(F)F)c1)Nc1ccc2oc(=O)ccc2c1
**Result** inactive

###

Listed compounds paired with reported growth
- System: OVCAR-5 ovarian
- test.name: NCI-60 one-dose screen, 48 h (100 = growth as untreated, 0 = no growth, -100 = all killed)
- assay.context: 10 µM unless noted
- Protocol: Growth inhibition of the OVCAR-5 human tumor cell line is measured as a screen for anti-cancer activity. Cells are grown in 96 well plates and exposed to the test compound for 48 hours. Compounds are tested at a single concentration, which is 10^-5 M for most compounds. The reported endpoint is percent growth (GI% or GIPRCNT), where numbers from 0 - 100% represent growth inhibition, and numbers from -100% - 0 represent cell death. For example, a value of 40 represents 60% growth inhibition. […]
The panel holds about 83,000 compounds, 20% with a hit somewhere; the sample as a whole holds those more often.
Please respond with the number in % and leave the unit unwritten.

Previously resolved entries follow.
>  <compound.string>
COc1ccc(-c2cnc(NC(=O)CCCCCCNC(=O)C(O)(O)C(F)(F)F)s2)cc1

>  <reading.unit>
%

>  <measured>
4.6

$$$$
>  <compound.string>
O=c1c2cc(-c3ccc(F)cc3F)ccc2n(O)c(=O)n1-c1cccc(C(F)(F)F)c1

>  <reading.unit>
%

>  <measured>
42.3

$$$$
>  <compound.string>
CC(=C(c1ccc(OCCCN(C)C)cc1)c1ccc(OCCCN(C)C)cc1)c1ccc(Cl)cc1

>  <reading.unit>
%

>  <measured>
100

$$$$
>  <compound.string>
COc1ccccc1N1CCN(C2=C(Cl)C(=O)c3ncccc3C2=O)CC1

>  <reading.unit>
%

>  <measured>
114

$$$$
>  <compound.string>
Brc1ccc2[nH]cc(-c3nn4cc(-c5nccs5)nc4s3)c2c1

>  <reading.unit>
%

>  <measured>
67.5

$$$$

**Query** # growth lookup, item Cc1ncn(-c2ccc(/C=N/Nc3ccnc4cc(Cl)ccc34)cc2)c1C
**Result** 102

**Query** Now the same for CCN(CC)c1ccc(/C=N/NC(=O)c2ccc(S(N)(=O)=O)cc2)cc1
**Result** 46.7

**Query** Now the same for CC1(C)CC[C@]23CC[C@]4(C)[C@H](CC[C@@H]5[C@@]6(C)CC[C@H](NCO)C(C)(C)[C@@H]6CC[C@]54C)[C@H]2[C@H]1OC3
**Result** 60.4

**Query** Now the same for O=[N+]([O-])c1ccc(NC(=S)NNC(=S)Nc2ccc(Br)cc2)cc1
**Result** 91.4
